# target_under_test: human ether-à-go-go-related gene (hERG) potassium channel (human, UniProt Q12809)
# Sequence (Q12809 whole entry, looked up): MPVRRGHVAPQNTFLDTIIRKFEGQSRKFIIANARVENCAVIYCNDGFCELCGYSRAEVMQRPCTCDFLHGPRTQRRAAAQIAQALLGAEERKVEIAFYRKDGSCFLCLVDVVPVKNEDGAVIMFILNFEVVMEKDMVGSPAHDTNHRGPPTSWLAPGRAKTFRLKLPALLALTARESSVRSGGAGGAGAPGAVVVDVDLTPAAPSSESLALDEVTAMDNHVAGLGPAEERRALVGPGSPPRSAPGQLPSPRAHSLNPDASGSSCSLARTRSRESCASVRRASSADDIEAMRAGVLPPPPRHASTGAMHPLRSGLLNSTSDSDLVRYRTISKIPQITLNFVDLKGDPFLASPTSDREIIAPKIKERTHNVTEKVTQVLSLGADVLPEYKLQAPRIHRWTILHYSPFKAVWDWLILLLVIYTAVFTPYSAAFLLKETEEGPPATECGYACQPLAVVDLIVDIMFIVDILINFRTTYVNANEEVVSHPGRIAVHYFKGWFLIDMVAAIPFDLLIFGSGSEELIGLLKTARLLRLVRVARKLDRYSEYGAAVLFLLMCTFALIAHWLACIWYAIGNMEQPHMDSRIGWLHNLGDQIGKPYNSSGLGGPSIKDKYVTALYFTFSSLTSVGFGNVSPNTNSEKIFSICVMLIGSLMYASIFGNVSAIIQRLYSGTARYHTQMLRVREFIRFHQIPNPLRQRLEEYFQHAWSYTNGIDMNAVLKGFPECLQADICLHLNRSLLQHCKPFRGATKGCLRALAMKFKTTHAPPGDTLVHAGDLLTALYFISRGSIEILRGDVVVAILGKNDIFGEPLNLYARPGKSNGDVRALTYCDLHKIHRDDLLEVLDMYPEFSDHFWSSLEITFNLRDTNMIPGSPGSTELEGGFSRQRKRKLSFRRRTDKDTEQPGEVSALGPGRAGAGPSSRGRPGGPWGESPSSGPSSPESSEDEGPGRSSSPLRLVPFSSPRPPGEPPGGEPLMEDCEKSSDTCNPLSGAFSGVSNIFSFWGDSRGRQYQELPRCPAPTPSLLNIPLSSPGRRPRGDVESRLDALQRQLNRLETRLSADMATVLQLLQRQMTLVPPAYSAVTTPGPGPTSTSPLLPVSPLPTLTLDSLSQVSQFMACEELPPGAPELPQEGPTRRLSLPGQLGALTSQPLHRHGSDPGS
# experiment_summary: primary screen, population patch clamp on CHO cells stably expressing hERG; higher = less effect of the substance
In all, about 310,000 compounds went through this assay and about 14,000 (4.5%) showed an effect of 50% or more. Effects have a minus sign here. Only a selection was taken, and strong results are over-represented in it overall.
measurement_name: hERG current change (%, negative = inhibition) at 10uM (%)
Kindly answer with a numeric value in %, unit omitted.

Known hERG current change (%, negative = inhibition) at 10uM results, listed for orientation:
>>> readout_value("CC(C)CN1CCN(Cc2ccccc2C(F)(F)F)CC1CCO (centres unmarked)")
4.5
>>> readout_value("CC(C)CCN1CCN(Cc2ccc(C#CCCO)cc2)CC1CCO (centres unmarked)")
-6.37

INPUT: State hERG current change (%, negative = inhibition) at 10uM on human ether-à-go-go-related gene (hERG) potassium channel (human, UniProt Q12809). Entry: CC(C)CCN1CCN(Cc2cccc(C(F)(F)F)c2)CC1CCO (centres unmarked)
OUTPUT: -55.1

INPUT: Print human ether-à-go-go-related gene (hERG) potassium channel (human, UniProt Q12809) hERG current change (%, negative = inhibition) at 10uM for `O=C(CCNC(=O)N1CCn2c1nc1ccccc12)NCc1ccc(F)cc1` .
OUTPUT: -6.29

INPUT: Determine reported hERG current change (%, negative = inhibition) at 10uM for OCCC1CN(Cc2ccc(C(F)(F)F)cc2)CCN1Cc1ccccc1 (centres unmarked) ; test system: human ether-à-go-go-related gene (hERG) potassium channel (human, UniProt Q12809).
OUTPUT: -56.8

INPUT: Give reported hERG current change (%, negative = inhibition) at 10uM for `c1ccc(OCCCn2nnc(-c3ccc(N4CCOCC4)cc3)n2)cc1` (human ether-à-go-go-related gene (hERG) potassium channel (human, UniProt Q12809))
OUTPUT: 15.4

INPUT: Send back human ether-à-go-go-related gene (hERG) potassium channel (human, UniProt Q12809) hERG current change (%, negative = inhibition) at 10uM of `O=C(c1ccc(Br)s1)N1CCN(c2ncccn2)CC1` only.
OUTPUT: -20.3

INPUT: Supply hERG current change (%, negative = inhibition) at 10uM measured with human ether-à-go-go-related gene (hERG) potassium channel (human, UniProt Q12809) for CC(C)CCN1CCN(Cc2ccc(C(F)(F)F)cc2)CC1CCO (centres unmarked) .
OUTPUT: -58.1

INPUT: Provide hERG current change (%, negative = inhibition) at 10uM, system human ether-à-go-go-related gene (hERG) potassium channel (human, UniProt Q12809), entry CC(C)CN1CCN(Cc2ccc(C#CC(C)(C)O)cc2)CC1CCO (centres unmarked)
OUTPUT: 8.57

INPUT: Enter hERG current change (%, negative = inhibition) at 10uM (test system human ether-à-go-go-related gene (hERG) potassium channel (human, UniProt Q12809)) for CC(C)CN1CCN(Cc2ccc(C(F)(F)F)cc2)CC1CCO (centres unmarked);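 also: peak tail current of the secondary pulse compared with the same well before compound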
OUTPUT: -56.6

INPUT: State the measured hERG current change (%, negative = inhibition) at 10uM (human ether-à-go-go-related gene (hERG) potassium channel (human, UniProt Q12809)) of OCCC1CN(Cc2cccc(C(F)(F)F)c2)CCN1Cc1ccccc1 (centres unmarked)
OUTPUT: -46.2

----------
# target_under_test: human ether-à-go-go-related gene (hERG) potassium channel (human);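 also: peak tail current of the secondary pulse compared with the same well before compound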
# experiment_summary: primary screen, population patch clamp on CHO cells stably expressing hERG; higher = less effect of the substance
# Procedure: Briefly, Chinese hamster ovary (CHO) cells stably expressing the hERG channel were dislodged from tissue culture flasks and dispensed into PPC plates. […] During the recording, background leak currents were estimated by a 100 ms step to -80 mV from an initial holding potential of -70 mV and subtracted from the subsequent current measurement. The campaign was conducted in two phases using slight differences in recording protocol. […]
The whole screen tested about 310,000 compounds, of which about 14,000 (4.5%) showed an effect of 50% or more. The effect is printed as a negative number. For the sample, strong results were picked, then their nearest neighbours and some compounds at random.
measurement_name: hERG current change (%, negative = inhibition) at 10uM (%)
Could you give me the number in %? Just the number is fine.

// known answers, use as guide
>>> readout_value("CCC(C)(C)c1ccc(OCCCC[n+]2ccccc2)c(C(C)(C)CC)c1.[Br-]")
-67.2
>>> readout_value("COc1ccc(OCCSc2nc(N)cc(=O)[nH]2)cc1")
-1.77
>>> readout_value("COc1ccc(/C=N/n2cnc3c([nH]c4ccccc43)c2=O)cc1COc1ccccn1")
-8.67
>>> readout_value("Cc1cccc(-c2noc(CNC(=O)COc3ccccc3C)n2)c1")
-1.88
>>> readout_value("COc1ccc2c(c1)[nH]c1c(=O)n(/N=C/c3ccc(OC)c(CN4CCCCC4)c3)cnc12")
-64.3
>>> readout_value("CCOC(=O)c1[nH]c2ccc(OCC)cc2c1NC(=O)CN1CCC2(CC1)OCCO2")
-25.7
>>> readout_value("CCC(C)(C)c1ccc(Oc2cccc(C(=O)O)c2)cc1")
11.5
>>> readout_value("Cc1ccc(-c2noc(C3CCCN(C(=O)c4ccccc4)C3)n2)o1 (centres unmarked)")
-13.1
>>> readout_value("Cc1ccc(-c2noc(C3CCCN(C(=O)c4cccc([N+](=O)[O-])c4)C3)n2)o1 (centres unmarked)")
-65
>>> readout_value("Cc1ccc(-c2noc(C3CCCN(C(=O)c4ccccc4Br)C3)n2)o1 (centres unmarked)")
-42.6

INPUT: // fetch hERG current change (%, negative = inhibition) at 10uM; item: Cc1cccc(C(=O)N2CCCC(c3nc(-c4ccc(C)o4)no3)C2)c1 (centres unmarked) ; system: human ether-à-go-go-related gene (hERG) potassium channel (human);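 also: peak tail current of the secondary pulse compared with the same well before compound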
OUTPUT: -27.7

INPUT: Lab note: human ether-à-go-go-related gene (hERG) potassium channel (human) assay, enter hERG current change (%, negative = inhibition) at 10uM for `O=C(Cn1cnc2ccccc21)N/N=C/C(Br)=C/c1ccccc1` here
OUTPUT: 5.98

----------
# target_under_test: human ether-à-go-go-related gene (hERG) potassium channel (human, UniProt Q12809);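 also: peak tail current of the secondary pulse compared with the same well before compound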
# experiment_summary: primary screen, population patch clamp on CHO cells stably expressing hERG; higher = less effect of the substance
# Description: Briefly, Chinese hamster ovary (CHO) cells stably expressing the hERG channel were dislodged from tissue culture flasks and dispensed into PPC plates. […] During the recording, background leak currents were estimated by a 100 ms step to -80 mV from an initial holding potential of -70 mV and subtracted from the subsequent current measurement. The campaign was conducted in two phases using slight differences in recording protocol. […]
Hit rate of the full screen: of about 310,000 compounds, about 14,000 (4.5%) showed an effect of 50% or more. Effects have a minus sign here. Many of the other results were omitted from the sample, so strong results are more common in it than they were.
Entries annotated with measured hERG current change (%, negative = inhibition) at 10uM
Express the result in % but write the number alone.

>>> readout_value("Cc1cccc(N2C(=O)CC(N3CCN(Cc4ccc5c(c4)OCO5)CC3)C2=O)c1 (stereo not shown)")
-19.1
>>> readout_value("COc1ccc(C2(CNC(=O)c3cccc([N+](=O)[O-])c3)CCOCC2)cc1")
0.0345
>>> readout_value("O=C(Nc1cc(Sc2ccccn2)cc([N+](=O)[O-])c1)c1ccc([N+](=O)[O-])cc1")
-6.06
>>> readout_value("COc1cccc(C2=CC(=O)C[C@H](c3ccc(Cl)cc3)C2)c1")
15.4
>>> readout_value("CCC(C)C(NC=C1C(=O)OC(C)(C)OC1=O)C(=O)O (stereo not shown)")
-4.97

INPUT: Answer with the recorded hERG current change (%, negative = inhibition) at 10uM for the molecule listed here: Cc1ccc(C(C2=C(O)CC(C)(C)CC2=O)C2C(=O)CC(C)(C)CC2=O)s1 (stereo not shown)
OUTPUT: 14.9

INPUT: Input `COc1ccc([C@H]2CC(=O)C=C(c3cccc(C#N)c3)C2)cc1` , output reported hERG current change (%, negative = inhibition) at 10uM.
OUTPUT: -72.3

INPUT: Look up hERG current change (%, negative = inhibition) at 10uM of `C=CCn1c(SCC(=O)NNC(=S)Nc2ccccc2)nnc1-c1ccccc1` and report it.
OUTPUT: 15.9

INPUT: Using known records, supply hERG current change (%, negative = inhibition) at 10uM for `COC(=O)c1ccc(CSc2nnc3c(n2)[nH]c2ccccc23)cc1`
OUTPUT: -23.1

INPUT: Given the molecule `COc1ccc(N2CCN(C(=O)Cn3cnc4c(cnn4-c4ccc(C)cc4)c3=O)CC2)cc1` , write its reported hERG current change (%, negative = inhibition) at 10uM.
OUTPUT: -9.24
